experiment: soluble fraction after stress (log2 fold change); higher = more stays soluble; pooled small domains, quantitative proteomics; conditions: stress: 75 degC;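 note: 20 min heating vs room temperature control held 20 min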
List of soluble fraction (log2) values.
recorded.endpoint: soluble fraction (log2)

HMAKIATTVYEQIRTAILNGELSNSERLVEEDLAVSMGISRTPVREALRRLAAEGLVDVSPNRGARVAE ... -0.27
HMRLPNGYGSITKLSGKRRKPFMVRITTGYDNEGKQLMSVLGYYATRTEALAVLAEYNKNPYNPI ... -3.36
HMFAKVEGITGDILDKLQQQRGFLALSDKSSPEAIYDTFGVSKKVFKQAIGTLFKQQKISIEAEGIRLV ... -1.56
HMNVTIGESIKNVINHYGTPIYSYNPNNQEKYYEFHTNKGVLVVTAIGKKNTGYVTRVSMTY ... -1.04
HMIDMQIDTARFGTLGVDDDKIITFPKGLPGFEDERRFFLMDHSGSSKIKWLHSADNPGLALV ... -0.0491
HMDYLYHNGKEIDQGSIMYKMEDYSDGIFELQSAKYADGTELDEKELEELESTQELIDWVMIDFVS ... 0.675
HMRADRLISMLMLLQARGKITAEELAVELGVSQRTIYRDIEALSFAGVPVYAERGPGGGIGLLEPY ... -1.73
HMKTGNIITVSLVWKGKYYMIRMFFPSASRPTRSDVQNEIEKVYPGSKLSTFSVSDYEPGQPLLQV ... -1.6
